Target: caspase-1 (Homo sapiens, UniProt P29466, D381E)
Construct: His tag (N); made in house; host or cells: E. coli
Sequence (P29466 120-297 limits assumed): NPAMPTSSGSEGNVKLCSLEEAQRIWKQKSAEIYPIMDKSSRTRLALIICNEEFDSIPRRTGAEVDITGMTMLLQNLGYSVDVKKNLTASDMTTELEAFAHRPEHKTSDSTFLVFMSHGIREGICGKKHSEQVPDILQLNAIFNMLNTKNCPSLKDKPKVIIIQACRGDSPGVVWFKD
Sequence (P29466 317-404 D381E limits assumed): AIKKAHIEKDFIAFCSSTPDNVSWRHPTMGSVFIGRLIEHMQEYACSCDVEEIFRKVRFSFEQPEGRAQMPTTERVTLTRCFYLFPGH
Experiment: Caspase-1 progress curve assay
Assay type: biochemical
Conditions: D381E variant, substrate Ac-YVAD-AMC, 30° C.
Measured Endpoint: k2 caspase-1 (M⁻¹ s⁻¹)
Number only, in M⁻¹ s⁻¹; omit the unit.

Worked examples follow.
Compound | Measurement Unit | k2 caspase-1
CC(C)[C@H](NC(=O)CCc1ccccc1)C(=O)N[C@@H](C)C(=O)NN(CC(=O)O)C(=O)[C@@H]1O[C@H]1C(=O)NCCc1ccccc1 [23h (R,R)] | M⁻¹ s⁻¹ | 950
CCOC(=O)[C@H]1O[C@@H]1C(=O)N(CC(=O)O)NC(=O)[C@@H](NC(=O)[C@H](CCC(=O)O)NC(=O)OCc1ccccc1)C(C)C [24c] | M⁻¹ s⁻¹ | 58500
CC(C)[C@H](NC(=O)CCc1ccccc1)C(=O)N[C@@H](C)C(=O)NN(CC(=O)O)C(=O)[C@H]1O[C@@H]1C(=O)NC(Cc1ccccc1)C(N)=O (stereo partly drawn) [23l (S,S)] | M⁻¹ s⁻¹ | 32740
CC(C)[C@H](NC(=O)CCc1ccccc1)C(=O)N[C@@H](C)C(=O)NN(CC(=O)O)C(=O)[C@H]1O[C@@H]1C(=O)OCc1ccccc1 [23d (S,S)] | M⁻¹ s⁻¹ | 52140

Prompt line: Fill in k2 caspase-1 for record CC(C)[C@H](NC(=O)CCc1ccccc1)C(=O)N[C@@H](C)C(=O)NN(CC(=O)O)C(=O)[C@@H]1O[C@H]1CCc1ccccc1 (relative stereo) [23a]
Response line: 300

Prompt line: Fill in k2 caspase-1 for record CC(C)[C@H](NC(=O)CCc1ccccc1)C(=O)N[C@@H](C)C(=O)NN(CC(=O)O)C(=O)[C@H]1O[C@@H]1C(=O)OCCc1ccccc1 [23e]
Response line: 56640

Prompt line: Fill in k2 caspase-1 for record CCOC(=O)[C@H]1O[C@@H]1C(=O)N(CC(=O)O)NC(=O)[C@@H](NC(=O)[C@H](CCC(=O)O)NC(=O)[C@@H](NC(=O)OCc1ccccc1)[C@@H](C)CC)[C@@H](C)O [27c (S,S)]
Response line: 12372

Prompt line: Fill in k2 caspase-1 for record CCOC(=O)[C@@H]1O[C@H]1C(=O)N(CC(=O)O)NC(=O)[C@@H](NC(=O)[C@H](CCC(=O)O)NC(=O)[C@H](CC(=O)O)NC(=O)OCc1ccccc1)C(C)C [25c (R,R)]
Response line: 4320

Prompt line: Fill in k2 caspase-1 for record CC(C)[C@H](NC(=O)CCc1ccccc1)C(=O)N[C@@H](C)C(=O)NN(CC(=O)O)C(=O)[C@H]1O[C@@H]1C(=O)NCCc1ccccc1 [23h (S,S)]
Response line: 17150

Prompt line: Fill in k2 caspase-1 for record CCOC(=O)[C@H]1O[C@@H]1C(=O)N(CC(=O)O)NC(=O)[C@H](C)NC(=O)[C@@H](NC(=O)CCc1ccccc1)C(C)C [23c (S,S)]
Response line: 32200

Prompt line: Fill in k2 caspase-1 for record CC(C)[C@H](NC(=O)[C@H](CCC(=O)O)NC(=O)[C@H](CC(=O)O)NC(=O)OCc1ccccc1)C(=O)NN(CC(=O)O)C(=O)[C@H]1O[C@@H]1C(=O)OCc1ccccc1 [25d]
Response line: 54690
